meta.source: patent US20220002432A1

# experimentalSystem: T1, cynomolgus CD38 ECD (cynomolgus, UniProt Q5VAN0 44-301, biotinylated on the AviTag during preparation)
# T1 construct: also called Cyno-CD38; Avi-Cyno CD38 ECD
# methodSummary: SPR (Biacore 8K), antibody captured, antigen injected;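 also: antibodies held on a CM5 chip through anti-human IgG Fc, antigen in 3-fold serial dilutions, 1 min association then 10 min dissociation at 25 °C, 1:1 Langmuir global fit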
Record form. Attribute: kon. Fill in for each entry.
Give bare numbers, in M⁻¹ s⁻¹.

Please review the entries below; each comes with its answer.
binder: 25F12 (antibody, human IgG1, kappa, V domains shown, Rabbit-human chimeric anti-CD38: rabbit VH and VL on human IgG1 and kappa constant regions) VH: RSLEESGGRLVTPGTPLTLTCTTSGFSLSSYDMSWVRQAPGKGLEWIGYITYGGNIYYATWAKGRFTTSKTSTTVDLKITSPTTEDTATYFCARTLYTGGRYYFSLWGPGTLVTVSS VL: AQVLTQTPSSVSAVVGGTVTINCQSSQSIANSNEVAWYQQKLGQPPKLLIYDASTLASGVPSRFSGSGSGTQFTLIISGVQSDDAATYYCQGTVYDNVWYAAFGGGTEVVVKR
measured: 1.04e+06
--
binder: 25C3 (antibody, human IgG1, kappa, V domains shown, Rabbit-human chimeric anti-CD38: rabbit VH and VL on human IgG1 and kappa constant regions) VH: QEQLEESGGDLVKPGASLTLTCKASGFSFSSAYDMCWVRQAPGKGLEWVACLYTVSSDSIYYASWAKGRFTISRTSSTTVTLQMTSLTAADTATYFCARDGDYFALWGPGTLVTVSS VL: DIVMTHTPASVEAAVGGTVTIKCQASQNIGGYLSWYQQKPGQRPKLLIYRASTLASGVPSRFKGSGSGTQFTLTISDLESADAATYYCQTYYYSGSSRYWAFGGGTEVVVKR
measured: 1.23e+06
--
binder: 26D4 (antibody, human IgG1, kappa, V domains shown, Rabbit-human chimeric anti-CD38: rabbit VH and VL on human IgG1 and kappa constant regions) VH: QEQLEESGGDLVKPEGSLTLTCTASGFSFSNDAICWVRQAPGKGLEWIACIYAGSGNTYYASWAKGRFSISKTSSTTVTLQMTSLTVADTATYFCASADTIDYFNLWGPGTLVTVSS VL: AQVLTQTPSPVSAAVGGTVTINCQASQSVYNNNYLAWYQQKPGQPPKLLIYRASNLASGVPSRFSASGSGTQFTLTISEVQSDDAATYYCQAYYRDPTTAFGGGTEVVVKR
measured: 715000
--
binder: 23B3 (antibody, human IgG1, kappa, V domains shown, Rabbit-human chimeric anti-CD38: rabbit VH and VL on human IgG1 and kappa constant regions) VH: QSVEESGGRLVTPGTPLTLTCTVSGFSLSNYDMTWVRQAPGRGLEWIGVISSGDNTNYARWAKGRFTISKTSSTTVDLKITSPTTEDTATYFCARILYNKGRYYFTFWGPGTLVTVSS VL: AQVLTQTPSSVSAAVGGTVTINCQSSQSIANSDELAWYQQKPGQPPKLLIYDASTLAPGVPSRFSGSGSGTQFTLTISGVQSDDAATYYCQGTVYDSGWYAAFGGGTEVVVKR
measured: 2.43e+06
--
binder: 21H9 (antibody, human IgG1, kappa, V domains shown, Rabbit-human chimeric anti-CD38: rabbit VH and VL on human IgG1 and kappa constant regions) VH: QSLEESGGDLVKPGASLTLTCTASGFSATTYYYYMCWVRQAPGKGLEWIACTYTGDGATYYATWAKGRFTISKTSSTTVTLQMTSLTAADTATYFCARSADNSIYYGYFNLWGPGTLVTVSS VL: AFELTQTPFSVSEPVGGTVTINCQASENIYSSLAWYQQKPGQPPKLLIYRASTLASGVPSRFSGSGSGTEFTLTISGVQSDDAATYYCQTYYGSTSTGFTFGGGTEVVVKR
measured: 184000

Each binder below has a reported value. Please supply its kon.
1. 22H6 (antibody, human IgG1, kappa, V domains shown, Rabbit-human chimeric anti-CD38: rabbit VH and VL on human IgG1 and kappa constant regions) VH: QSVEESGGRLVTPGTPLTLTCTVSGFSLSNNAISWVRQAPGKGLQWIGSIYGSGNTYYATWAKGRFTVSKTSTTVDLKINSPTTEDTATYFCAREGAGSSWGFNLWGPGTLVTVSS VL: AQVLTQTASSVSAAVGGTVTISCQSSESVYKNNYLSWYQQKPGQPLKCLIYSASTLASGVPSRFKGSGSGTQFTLTISDLESDDAATYYCAGGYSGNINGFGGGTEVVVKR
2. 17E9 (antibody, human IgG1, kappa, V domains shown, Rabbit-human chimeric anti-CD38: rabbit VH and VL on human IgG1 and kappa constant regions) VH: QSVEESGGRLVTPGTPLTLTCTASGFSLSRYYVTWVRQAPGKGLEWIGIIYISGTTYYATWAKGRFTISKSATTVDLRIASPTTEDTATYFCAAAWPVGTYVLPLWGPGTLVTVSS VL: AAVLTQTPSPVSAAVGGTVTIKCQSSQSVVNANNLSWYQQKPGQPPKLLIYLASTLASGVPSRFSGSGSGTQFTLTISSVQSDDAATYYCLGVYDDDGDNAFGGGTEVVVKR
3. 20B5 (antibody, human IgG1, kappa, V domains shown, Rabbit-human chimeric anti-CD38: rabbit VH and VL on human IgG1 and kappa constant regions) VH: QSLEESGGDLVKPGASLTLTCTASGFSFSSRYWICWVRQAPGKGLEWIACIVAGTTNTYYASWAKGRFTISKTSSTTVTLQMTSLTAADTATYFCAGDPRTGSNVGYFNLWGPGTLVTVSS VL: AQVLTQTPSPVSAAVGGTVTINCQASQSVYNNNYLAWFQQKPGQPPKLLIYSASTLASGVPSRFKGSGSGTQFTLTISEVQSDDAATYYCQAYYSGGIYAFGGGTEVVVKR
4. 21G2 (antibody, human IgG1, kappa, V domains shown, Rabbit-human chimeric anti-CD38: rabbit VH and VL on human IgG1 and kappa constant regions) VH: QSVEESGGRLVTPGTPLTLTCTVSGFSLSNYGVSWVRQAPGKGLEWIGYILTSGGTYYANWAQGRFTISKTSTTVDLKITSPTTEDTATYFCGRPKDSDSSAFVSLWGPGTLVTVSS VL: DVVMTQTPASVSEPVGGTVTINCQASESIYSNLAWYQQKPGQPPKLLIYKASTLASGVSSRFKGSGSGTEFTLTISDLESADAATYYCQANHMIVIYGNGFGGGTEVVVKR

564000
2.64e+06
588000
253000
